Sourced from paper PMC3948918

# System: HeLa Control cells
# SETTINGS: read-out: IC50 HeLa Control
Numbered stars: 1 amine (or outer) side, 2 acyl side, 3 side chain; on linkers, the order of the positions; unused ones are H or OH. Bridge positions count the residues as written; N and C are the ends. Square brackets hold non-standard residues; d marks the D form. Peptide text beside a SMILES is read from it. Adda = CO[C@@H](Cc1ccccc1)[C@@H](C)/C=C(C)/C=C/[C@H](N[*:1])[C@H](C)C(=O)[*:2]; dAsp(3S-Me) = C[C@H](C(=O)[*:3])[C@@H](N[*:1])C(=O)[*:2]; d(γGlu) = O=C(O)[C@@H](CCC(=O)[*:2])N[*:1]; NMeDha = C=C(NC)C(=O)O
METRIC: IC50

Previously resolved entries follow.
CC=C1C(=O)N[C@@H](C(=O)O)[C@H](C)C(=O)N[C@@H](CCCNC(=N)N)C(=O)N[C@@H](/C=C/C(C)=C/[C@H](C)[C@H](Cc2ccccc2)OC)[C@H](C)C(=O)N[C@@H](C(=O)O)CCC(=O)N1C [compound 23, Nodularin] : > 100 nM
C=C1C(=O)N[C@H](C)C(=O)N[C@@H](CC(C)C)C(=O)N[C@@H](C(=O)O)[C@H](C)C(=O)N[C@@H](Cc2c[nH]c3ccccc23)C(=O)N[C@@H](/C=C/C(C)=C/[C@H](C)[C@H](Cc2ccccc2)OC)[C@H](C)C(=O)N[C@@H](C(=O)O)CCC(=O)N1C [compound 8, LW, reference compound] (W[Adda][d(γGlu)][NMeDha][dA]L[dAsp(3S-Me)]-OH; lactam N-7) : > 1000 nM

// below: IC50 requested for another compound
# input Checklist item: IC50 tested on HeLa Control cells, entry C=C1C(=O)N[C@H](C)C(=O)N[C@@H](CCCNC(=N)N)C(=O)N[C@@H](C(=O)O)[C@H](C)C(=O)N[C@@H](Cc2ccc(O)cc2)C(=O)N[C@@H](/C=C/C(C)=C/[C@H](C)[C@H](Cc2ccccc2)OC)[C@H](C)C(=O)N[C@@H](C(=O)O)CCC(=O)N1C [compound 16, MC-RY] (Y[Adda][d(γGlu)][NMeDha][dA]R[dAsp(3S-Me)]-OH; lactam N-7) , value?
# output > 1000 nM
